Assay: NCI Yeast Anticancer Drug Screen. Data for the rad50 strain (AID 155);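 also: 0% = growth of vehicle-only cultures of the same strain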
Settings: S. cerevisiae rad50 strain growth inhibition; at 3.7 µM; hits give high values
Compounds without any hit were thinned out: in the full panel of roughly 79,000, 15% have a hit.
Assign class by growth inhibition: not lower than 10% means 1 (yes); lower than 10% means 0 (no).

Check out these entries, answers already filled in.
Compound | Class Assignment
O=C(c1ccc(Cl)cc1Cl)C(Cl)Cl | 1 (yes)
O=C1c2ccccc2-c2n[nH]c3cccc1c23 | 1 (yes)

In: Would you say `O=[N+]([O-])c1cc2no[n+]([O-])c2cc1N1CCCCC1` shows growth inhibition at minimum 10%?
Out: 1 (yes)

In: Hi team, for `Cc1[nH]c2ccccc2c1C(c1ccc(N)cc1)c1c(C)[nH]c2ccccc12` , is the recorded growth inhibition at or above 10%?
Out: 0 (no)

In: Threshold query (growth inhibition >= 10%) on `NNC(=O)CCc1ccc2ccc3ccccc3c2c1`
Out: 0 (no)

In: Hi, just wondering whether `CCOC(=O)c1cc([N+](=O)[O-])cc([N+](=O)[O-])c1Sc1ncnc2nc[nH]c12` shows growth inhibition of 10% or higher.
Out: 0 (no)

In: Test whether the compound `CCCCOC(=O)N[C@H]1CCc2cc(OC)c(OC)c(OC)c2-c2ccc(SC)c(=O)cc21` records growth inhibition of 10% or higher.
Out: 0 (no)

The origin of these recorded values is PubChem BioAssay (NCI).
